- experimental-details: Pharmacokinetic analysis following PO administration in dog
- Assay type: in vivo
- details: in vivo, 1 mg/kg; dog, oral dose 1 (mg); read-out: Bioavailability (F %)

| compound | bioavailability / % |
| --- | --- |
| NC(=O)c1ccc2c(c1O)[C@]13CCN(CC4CC4)[C@H](C2)[C@]1(O)CCC(=O)C3 [Compound 1] | 66 |

----------
- experimental-details: Pharmacokinetic analysis following PO administration in rat
- details: rat, in vivo, po, 10 mg/kg

| molecule | bioavailability / % |
| --- | --- |
| O=C1CC[C@@]2(O)[C@H]3Cc4ccc(O)c5c4[C@@]2(CCN3CC2CC2)[C@H]1O5 [Naltrexone, reference compound] | 3 |
| NC(=O)c1ccc2c(c1O)[C@]13CCN(CC4CC4)[C@H](C2)[C@]1(O)CCC(=O)C3 | 15 |

----------
- experimental-details: Pharmacokinetic analysis following PO administration in monkey
- details: monkey, in vivo, po, 10 mg/kg

| molecule | AUC(0-inf) |
| --- | --- |
| NC(=O)c1ccc2c(c1O)[C@]13CCN(CC4CC4)[C@H](C2)[C@]1(O)CCC(=O)C3 [Compound 1] | 4470 ng·h/mL |
| O=C1CC[C@@]2(O)[C@H]3Cc4ccc(O)c5c4[C@@]2(CCN3CC2CC2)[C@H]1O5 [Naltrexone, reference compound] | 54 ng·h/mL |

----------
- experimental-details: Pharmacokinetic analysis following PO administration in dog
- Assay type: in vivo
- details: dog, in vivo, po, 1 mg/kg

| molecule | AUC(0-inf), ng·h/mL |
| --- | --- |
| NC(=O)c1ccc2c(c1O)[C@]13CCN(CC4CC4)[C@H](C2)[C@]1(O)CCC(=O)C3 [Compound 1] | 491 |

----------
- experimental-details: Pharmacokinetic analysis following PO administration in monkey
- details: monkey, in vivo, po, 10 mg/kg
Each record here notes measured bioavailability.
quantity: bioavailability (%)

| molecule | quantity | endpoint-unit | recorded-measurement |
| --- | --- | --- | --- |
| NC(=O)c1ccc2c(c1O)[C@]13CCN(CC4CC4)[C@H](C2)[C@]1(O)CCC(=O)C3 | bioavailability | % | 68 |
| O=C1CC[C@@]2(O)[C@H]3Cc4ccc(O)c5c4[C@@]2(CCN3CC2CC2)[C@H]1O5 [Naltrexone, reference compound] | bioavailability | % | 13 |
